assay: In vivo inhibitor kinetics (GM 6001 concentration in CSF); set-up: species or system mice; conditions: mouse, csf, ip; animals with EAE; single i.p. dose of 4 mg; after 16 hours
measured-metric: concentration at 16 h

molecule	value
CNC(=O)[C@H](Cc1c[nH]c2ccccc12)NC(=O)[C@@H](CC(=O)NO)CC(C)C [GM 6001]	< 60 ng/mL

====

experiment: In vivo inhibitor kinetics (GM 6001 concentration in CSF); parameters: species or system mice; conditions: mouse, csf, ip; animals with EAE; single i.p. dose of 4 mg; for at least 3 h
measured-metric: concentration at 3 h

structure-string	measured-metric	value
CNC(=O)[C@H](Cc1c[nH]c2ccccc12)NC(=O)[C@@H](CC(=O)NO)CC(C)C	concentration at 3 h	100 to 200 ng/mL

====

assay: In vivo inhibitor kinetics (GM 6001 concentration in CSF); design: species or system mice; conditions: mouse, csf, ip; animals with EAE; single i.p. dose of 4 mg; after 8 hours

compound	concentration at 8 h / ng/mL
CNC(=O)[C@H](Cc1c[nH]c2ccccc12)NC(=O)[C@@H](CC(=O)NO)CC(C)C [GM 6001]	100

====

assay: In vivo inhibitor kinetics (GM 6001 concentration in CSF); set-up: species or system mice; conditions: mouse, csf, ip; animals with EAE; single i.p. dose of 4 mg; for at least 3 h; converted from ng/ml

compound	concentration at 3 h
CNC(=O)[C@H](Cc1c[nH]c2ccccc12)NC(=O)[C@@H](CC(=O)NO)CC(C)C [GM 6001]	0.25 to 0.5 µM
